# Test system: T-47D breast
# test-protocol: NCI tumour cell line growth inhibition, 48 h
measured-attribute: TGI

molecule="CCOC(=O)C(Cc1ccc(N(CCCl)CCCl)cc1)NC(=O)C(Cc1ccccc1)NC(C)=O (stereo unspecified)" measured_attribute=TGI obs_value="> 0.928 µM"
molecule=COc1ccc2c(c1)C(=O)c1c-2c(=O)n(CCCN(C)C)c2cc(OC)c(OC)cc12 measured_attribute=TGI obs_value="> 100 µM"
molecule=c1ccc(CN2COc3c(ccc4c5c(ccc34)CN(Cc3ccccc3)CO5)C2)cc1 measured_attribute=TGI obs_value="> 100 µM"
molecule=CCCC(=O)OCOC(=O)N(C)N=Nc1ccc(C(=O)OCC)cc1 measured_attribute=TGI obs_value="> 100 µM"
molecule=CN(C)CCCn1c2c(c3cc4c(cc3c1=O)OCO4)C(=O)c1ccccc1-2 measured_attribute=TGI obs_value="> 100 µM"
molecule=COc1ccc(OC)c(Cc2cnc3nc(N)nc(N)c3c2C)c1 measured_attribute=TGI obs_value="47.2 µM"

T-47D breast TGI of C=C(C)CCC1CC=[N+]([O-])OC1C(C)(C)C (stereo unspecified) is 90.1 µM

Entry Nc1nc(-c2ccc(Cl)cc2)nc2c1sc(=S)n2-c1ccccc1 ; assay system T-47D breast; TGI recorded at 5.54 µM

---

Overview of recorded TGI for various compounds
# Test system: SK-MEL-5 melanoma
# test-protocol: NCI tumour cell line growth inhibition, 48 h
Numbers only here, please. The scale is µM.

compound="COc1ccccc1C1c2cc3c(cc2OC(N2CCCC2)C1C)OCO3 (stereo not given)" experimental_target="SK-MEL-5 melanoma" measured_attribute=TGI obs_value=29.4
compound=O=C1/C(=C/c2ccccc2[N+](=O)[O-])COc2ccc(O)cc21 experimental_target="SK-MEL-5 melanoma" measured_attribute=TGI obs_value=4.07
compound="CC(=O)OCC(CC[CH2][Sn]([Cl])([Cl])[c]1ccccc1)OC(C)=O (stereo not given)" experimental_target="SK-MEL-5 melanoma" measured_attribute=TGI obs_value=55.5

# context switch: different compound, same TGI
Documented TGI of c1ccc2cc3c(cc2c1)OP1(Oc2cccc4cccnc24)(O3)Oc2cc3ccccc3cc2O1 : 14.8

---

# Test system: EKVX NSCLC
# test-protocol: NCI tumour cell line growth inhibition, 48 h
measured-attribute: GI50

Below are worked cases with known answers.
molecule="COc1cc(/C=C/C(=O)O[C@H]2[C@H](O[C@@H]3O[C@@H](C)[C@H](O)[C@@H](O)[C@H]3O)[C@@H](O)[C@H](OCCc3ccc(O)c(O)c3)O[C@@H]2COC2OCC(O)(CO)C2O)ccc1O (some centres undefined)" experimental_target="EKVX NSCLC" obs_value="> 100 µM"
molecule=CC(=O)[CH-]C(C)=O.CC(=O)[CH-]C(C)=O.CC(=O)[CH-]C(C)=O.[Ga+3] experimental_target="EKVX NSCLC" obs_value="> 100 µM"
molecule="N#CC1C(N)=NNC12Nc1ccccc1S2 (centres undefined)" experimental_target="EKVX NSCLC" obs_value="15.4 µM"
molecule=C[C@H]1CN(C2COC2)CCN1c1ccc(Nc2cc(-c3ccnc(N4CCn5c(cc6c5CC(C)(C)C6)C4=O)c3CO)cn(C)c2=O)nc1 experimental_target="EKVX NSCLC" obs_value="> 100 µM"

# molecule Nc1nc(-c2ccc(Cl)cc2)nc2c1sc(=S)n2-c1ccccc1 ; its GI50 = 2.75 µM

The measured GI50 associated with COc1ccc(C2CC(c3ccc(N(C)C)cc3)=NN2c2ccc(S(N)(=O)=O)cc2)cc1 (centres undefined) reads 3.79 µM

Data provenance is PubChem BioAssay (NCI).
